- target_under_test: T1, human adenosine A2A receptor (A2aR) (human, UniProt P29274 1-412)
- T1 construct: Assays used HEK293 cells stably overexpressing human A2aR (BPS Bioscience 79381), human A2aR-expressing CHO cells, or endogenous A2aR on human PBMC; also called human A2aR; hA2aR
- protocol_summary: flow cytometry, HEK293-hA2aR cells, supernatant 1 ug/ml
measured_attribute: MFI

INSERT INTO results (binder, readout_value) VALUES
  ('Hu3F8-H1/Hu3F8-L4 (antibody, human IgG1, V domains shown, Human IgG1 FES (L234F, L235E, P331S) and human Ig kappa constant domains) VH: QVQLVQSGAEVKKPGASVKVSCKASGFTFTRYWMNWVRQAPGQGLEWMGRIDPSDSETHYNHKFWGRVTMTRDTSTSTVYMELSSLRSEDTAVYYCLRSLYGKGDYWGQGTTVTVSS VL: DIVMTQSPLSLPVTPGEPASISCRSSQSIVHSNGNTYLEWYLQKPGQSPQLLIYKVSNRFSGVPDRFSGSGSGTDFTLKISRVEAEDVGVYYCYQGSHVPLTFGGGTKVEIK', '1750 MFI'),
  ('Hu3F8-H5/Hu3F8-L3 (antibody, human IgG1, V domains shown, Human IgG1 FES (L234F, L235E, P331S) and human Ig kappa constant domains) VH: EVQLVQSGAEVKKPGASVKVSCKASGFTFTRYWMNWVRQAPGQGLEWIGRIDPSDSETHYNAKFWGRATLTVDKSTSTVYMELSSLRSEDTAVYYCLRSLYGKGDYWGQGTTVTVSS VL: DVVMTQSPLSLPVTLGQPASISCRSSQSIVHSNGNTYLEWYQQRPGQSPRLLIYKVSNRFSGVPDRFSGSGSGTDFTLKISRVEAEDVGVYYCYQGSHVPLTFGGGTKVEIK', '1840 MFI'),
  ('Hu3F8-H5/Hu3F8-L4 (antibody, human IgG1, V domains shown, Human IgG1 FES (L234F, L235E, P331S) and human Ig kappa constant domains) VH: EVQLVQSGAEVKKPGASVKVSCKASGFTFTRYWMNWVRQAPGQGLEWIGRIDPSDSETHYNAKFWGRATLTVDKSTSTVYMELSSLRSEDTAVYYCLRSLYGKGDYWGQGTTVTVSS VL: DIVMTQSPLSLPVTPGEPASISCRSSQSIVHSNGNTYLEWYLQKPGQSPQLLIYKVSNRFSGVPDRFSGSGSGTDFTLKISRVEAEDVGVYYCYQGSHVPLTFGGGTKVEIK', '1840 MFI'),
  ('Hu3F8-H2/Hu3F8-L3 (antibody, human IgG1, V domains shown, Human IgG1 FES (L234F, L235E, P331S) and human Ig kappa constant domains; also called Hu3F8 VH2/VL3) VH: EVQLVQSGAEVKKPGASVKVSCKASGFTFTRYWMNWVRQAPGQGLEWMGRIDPSDSETHYNHKFWGRVTMTVDTSTSTVYMELSSLRSEDTAVYYCLRSLYGKGDYWGQGTTVTVSS VL: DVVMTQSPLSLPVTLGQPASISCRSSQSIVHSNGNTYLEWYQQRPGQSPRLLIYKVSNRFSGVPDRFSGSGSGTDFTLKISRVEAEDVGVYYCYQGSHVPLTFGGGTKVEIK', '1800 MFI'),
  ('Hu3F8-H1/Hu3F8-L2 (antibody, human IgG1, V domains shown, Human IgG1 FES (L234F, L235E, P331S) and human Ig kappa constant domains) VH: QVQLVQSGAEVKKPGASVKVSCKASGFTFTRYWMNWVRQAPGQGLEWMGRIDPSDSETHYNHKFWGRVTMTRDTSTSTVYMELSSLRSEDTAVYYCLRSLYGKGDYWGQGTTVTVSS VL: DVVMTQSPLSLPVTLGQPASISCRSSQSIVHSNGNTYLEWYQQRPGQSPRRLIYKVSNRFSGVPDRFSGSGSGTDFTLKISRVEAEDVGVYYCYQGSHVPLTFGGGTKVEIK', '10 MFI'),
  ('Hu3F8-H6/Hu3F8-L2 (antibody, human IgG1, V domains shown, Human IgG1 FES (L234F, L235E, P331S) and human Ig kappa constant domains) VH: EVQLVQSGAEVKKPGESLRISCKASGFTFTRYWMNWVRQMPGKGLEWIGRIDPSDSETHYNHKFWGHATLSVDKSSSTVYLQWSSLKASDTAMYYCLRSLYGKGDYWGQGTTVTVSS VL: DVVMTQSPLSLPVTLGQPASISCRSSQSIVHSNGNTYLEWYQQRPGQSPRRLIYKVSNRFSGVPDRFSGSGSGTDFTLKISRVEAEDVGVYYCYQGSHVPLTFGGGTKVEIK', '285 MFI'),
  ('Hu3F8-H2/Hu3F8-L1 (antibody, human IgG1, V domains shown, Human IgG1 FES (L234F, L235E, P331S) and human Ig kappa constant domains) VH: EVQLVQSGAEVKKPGASVKVSCKASGFTFTRYWMNWVRQAPGQGLEWMGRIDPSDSETHYNHKFWGRVTMTVDTSTSTVYMELSSLRSEDTAVYYCLRSLYGKGDYWGQGTTVTVSS VL: DVVMTQSPLSLPVTLGQPASISCRSSQSIVHSNGNTYLEWFQQRPGQSPRRLIYKVSNRFSGVPDRFSGSGSGTDFTLKISRVEAEDVGVYYCYQGSHVPLTFGGGTKVEIK', '16 MFI'),
  ('Hu3F8-H2/Hu3F8-L4 (antibody, human IgG1, V domains shown, Human IgG1 FES (L234F, L235E, P331S) and human Ig kappa constant domains) VH: EVQLVQSGAEVKKPGASVKVSCKASGFTFTRYWMNWVRQAPGQGLEWMGRIDPSDSETHYNHKFWGRVTMTVDTSTSTVYMELSSLRSEDTAVYYCLRSLYGKGDYWGQGTTVTVSS VL: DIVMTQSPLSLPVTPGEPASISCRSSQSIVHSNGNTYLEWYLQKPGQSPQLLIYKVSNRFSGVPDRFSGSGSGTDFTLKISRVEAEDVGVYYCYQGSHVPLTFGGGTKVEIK', '1780 MFI'),
  ('Hu3F8-H1/Hu3F8-L1 (antibody, human IgG1, V domains shown, Human IgG1 FES (L234F, L235E, P331S) and human Ig kappa constant domains) VH: QVQLVQSGAEVKKPGASVKVSCKASGFTFTRYWMNWVRQAPGQGLEWMGRIDPSDSETHYNHKFWGRVTMTRDTSTSTVYMELSSLRSEDTAVYYCLRSLYGKGDYWGQGTTVTVSS VL: DVVMTQSPLSLPVTLGQPASISCRSSQSIVHSNGNTYLEWFQQRPGQSPRRLIYKVSNRFSGVPDRFSGSGSGTDFTLKISRVEAEDVGVYYCYQGSHVPLTFGGGTKVEIK', '9 MFI'),
  ('Hu3F8-H6/Hu3F8-L5 (antibody, human IgG1, V domains shown, Human IgG1 FES (L234F, L235E, P331S) and human Ig kappa constant domains; also called Hu3F8 VH6/VL5) VH: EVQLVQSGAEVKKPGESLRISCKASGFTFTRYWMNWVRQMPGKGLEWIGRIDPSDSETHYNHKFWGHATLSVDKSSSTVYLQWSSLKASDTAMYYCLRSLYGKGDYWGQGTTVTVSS VL: DVVMTQSPLSLPVTPGEPASISCRSSQSIVHSNGNTYLEWYLQKPGQSPQLLIYKVSNRFSGVPDRFSGSGSGTDFTLKISRVEAEDVGVYYCYQGSHVPLTFGGGTKVEIK', '1900 MFI');
